B1: glmS ribozyme (parent)
chain: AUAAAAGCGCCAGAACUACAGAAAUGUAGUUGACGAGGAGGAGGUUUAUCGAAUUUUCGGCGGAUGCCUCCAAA

- Variants of: B1
- TEST_DESCRIPTION: self-cleavage kobs at 10000 uM GlcN6P; higher = faster cleavage; RNA array
- CONDITION_LABEL: with glucosamine-6-phosphate
Variants at the floor of the assay were thinned out.
Decide by self-cleavage kobs at 10000 uM GlcN6P: equal to or exceeding 0.0004 s⁻¹ means YES, less means NO.

Answered cases to consult:
| MUTATION_NAME | CLASSIFICATION |
| --- | --- |
| C10U A33U A52U | NO |
| G41A G60C | NO |
| U2C | YES |
| G13A U47A G66A | NO |
| U31G A42G | YES |
| A12C C58U G63U | NO |

Task: Given the entry G43C C68U C70G C71U , answer whether its self-cleavage kobs at 10000 uM GlcN6P meets or surpasses 0.0004 s⁻¹.
Output: NO

Task: Tell me whether self-cleavage kobs at 10000 uM GlcN6P is at least 0.0004 s⁻¹ here: U30G U54C
Output: YES

Task: Quick check, self-cleavage kobs at 10000 uM GlcN6P >= 0.0004 s⁻¹? U31C C70G
Output: NO

Task: I'd appreciate it if you could say whether C11A C70U has self-cleavage kobs at 10000 uM GlcN6P at least equal to 0.0004 s⁻¹.
Output: NO
